- test.details: Acute toxicity, LD50
- Assay type: in vivo
- test.conditions: mouse, in vivo, ip, mouse male, 5 weeks; intraperitoneal
property.name: LD50 (mg/kg)
Answers are plain numbers, in mg/kg.

Fill in the blank: the reported LD50 of CC(C)CCC[C@@H](C)[C@H]1CC[C@H]2[C@@H]3CC[C@H]4C[C@H](OP(=O)(O)O)CC[C@]4(C)[C@H]3CC[C@]12C [dipotassium epicholestanyl phosphate] is ____. 1580
